biological target: T1, C-terminal portion of the SARS-CoV-2 Envelope protein, N-terminal biotinylated peptide (SARS-CoV-2); assay: SPR; Biacore X100; biotinylated E peptide immobilised on streptavidin SA chip (target 1000 RU); PDZ2-f-NPs as analyte, 0.0625-30 uM in equivalents of protein; 25 C; HBS-EP (10 mM Hepes pH 7.4, 0.15 M NaCl, 3 mM EDTA, 0.05% P20); steady-state affinity model / Scatchard plot of maximum amplitudes; conditions: both partners purified
T1 construct: also called SARS-CoV-2 E-protein; E-tetradecapeptide
T1 peptide: Biotin-VKNLNSSRVPDLLV
No end group written: not given here. *: point of attachment. Biotin = O=C1N[C@H]2[C@H](CS[C@H]2CCCCC(=O)*)N1
Measured metric: Kd (nM)
Answers are plain numbers, in nM.

Dear colleague, I am looking for the recorded Kd of the following binder: PDZ2-ZO1 functionalized PLGA-PEG-Bis-sulfone nanoparticles (PDZ2 domain of human ZO-1, His-tagged, conjugated to the nanoparticle surface) (domain or fragment, His-tag chemically linked to the bis-sulfone (PEG-mono-sulfone) moiety of PLGA-PEG nanoparticles) KVTLVKSRKNEEYGLRLASHIFVKEISQDSLAARDGNIQEGDVVLKINGTVTENMSLTDAKTLIERSKGKLKMVVQRDE
970

Hello, the source for this data is paper PMC11156922, in case you need it.
